Target under test: T1, rat parathyroid hormone receptor 1, wild-type (rPTHR-1) (rat, UniProt P25961 27-591)
T1 sequence (looked up): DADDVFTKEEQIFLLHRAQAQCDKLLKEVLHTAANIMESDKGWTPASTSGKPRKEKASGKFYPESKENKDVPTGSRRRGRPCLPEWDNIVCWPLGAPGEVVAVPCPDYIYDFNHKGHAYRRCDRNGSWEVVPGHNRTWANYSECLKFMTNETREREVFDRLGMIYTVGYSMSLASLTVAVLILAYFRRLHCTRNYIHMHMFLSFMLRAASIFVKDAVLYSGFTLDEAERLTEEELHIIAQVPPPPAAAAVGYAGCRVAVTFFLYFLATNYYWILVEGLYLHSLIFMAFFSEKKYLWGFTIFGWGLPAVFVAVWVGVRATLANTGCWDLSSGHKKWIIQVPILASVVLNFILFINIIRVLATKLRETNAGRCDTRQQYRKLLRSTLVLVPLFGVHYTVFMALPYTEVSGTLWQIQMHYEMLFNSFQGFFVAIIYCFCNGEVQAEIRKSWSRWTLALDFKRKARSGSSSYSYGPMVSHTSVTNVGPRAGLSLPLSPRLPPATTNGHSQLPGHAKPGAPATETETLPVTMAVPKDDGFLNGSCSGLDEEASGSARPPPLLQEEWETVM
Method summary: cell-based or functional assay
Non-standard residues stand in square brackets, D forms with d. No end group written: not given here. β3hW = N[C@H](CC(=O)O)Cc1c[nH]c2ccccc12; β3hE = N[C@@H](CCC(=O)O)CC(=O)O; β3hF = N[C@H](CC(=O)O)Cc1ccccc1; β3hK = NCCCC[C@H](N)CC(=O)O; β3hM = CSCC[C@H](N)CC(=O)O; β3hD = NC(CC(=O)O)CC(=O)O
Readout label: cAMP pEC50
// keep it numeric: no unit symbol after the value

Incoming: Supply reported cAMP pEC50 belonging to this binder: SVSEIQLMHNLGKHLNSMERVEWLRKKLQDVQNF-NH2 (not fully specified (residue 32); printed as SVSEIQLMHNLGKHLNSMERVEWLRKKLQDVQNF-NH2; also: three β3 residues, positions not given here in text, also called α/β-peptide B3) [B3]
Outgoing: 9.26

Incoming: Supply reported cAMP pEC50 belonging to this binder: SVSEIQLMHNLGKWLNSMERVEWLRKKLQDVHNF-NH2 (not fully specified (residue 14); printed as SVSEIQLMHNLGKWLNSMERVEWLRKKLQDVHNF-NH2; also: seven β3 residues, positions not given here in text, also called α/β-peptide D7) [D7]
Outgoing: 8.79

Incoming: Supply reported cAMP pEC50 belonging to this binder: SVSEIQLMHNLGK[β3hW]LNS[β3hM]ERV[β3hE]WLR[β3hK]KLQ[β3hD]VHN[β3hF]-NH2 (also called α/β-peptide D6) [D6]
Outgoing: 9.48

Incoming: Supply reported cAMP pEC50 belonging to this binder: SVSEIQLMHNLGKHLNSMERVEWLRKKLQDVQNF-NH2 (not fully specified (residues 20, 24, 28, 32); printed as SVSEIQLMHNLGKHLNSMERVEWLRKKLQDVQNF-NH2; also: five β3 residues, positions not given here in text, also called α/β-peptide B5) [B5]
Outgoing: 8.84
